Sourced from paper PMC12401824

Entries annotated with measured tissue to tissue ratio at 1 h
# assay.explanation: Biodistribution in PC-3 tumor-bearing CB17-SCID mice
# Type: in vivo
# run.conditions: CB17-SCID, mouse, tumor and spleen, iv, 100 pmol, total radioactivity; ^68Ga-labeled; 1 h p.i.; n = 4; read-out: Tumor-to-Spleen ratio
Starred links: 1 amine or outer side, 2 acyl side, 3 side chain; linkers in the order of their positions; H or OH if unused. Non-standard residues stand in square brackets, D forms with d. Residues, ends and D or L forms follow the SMILES beside them. *: point of attachment. DOTA = O=C(O)CN1CCN(CC(=O)O)CCN(CC(=O)*)CCN(CC(=O)O)CC1; Sta = CC(C)C[C@H](N)[C@@H](O)CC(=O)O; Bta = N[C@@H](Cc1csc2ccccc12)C(=O)O; X1 = O=C(CN1CCC(N[*:1])CC1)[*:2]; hSer = N[C@@H](CCO)C(=O)O
Form: value (number only, do not type unit).

- compound: "CC(C)C[C@H](NC(=O)C[C@H](O)[C@H](CC(C)C)NC(=O)[C@H](Cc1c[nH]cn1)NC(=O)CNC(=O)[C@@H](NC(=O)[C@H](C)NC(=O)[C@H](Cc1c[nH]c2ccccc12)NC(=O)[C@H](CCO)NC(=O)[C@@H](Cc1ccccc1)NC(=O)CN1CCC(NC(=O)CN2CCN(CC(=O)O)CCN(CC(=O)O)CCN(CC(=O)O)CC2)CC1)C(C)C)C(N)=O [[^68Ga]Ga-[Hse^7]RM2, metal not drawn] ({DOTA}-[X1][dF][hSer]WAVGH[Sta]L-NH2)"
  tissue to tissue ratio at 1 h: 5

Proceed to the following item.
Give the reported tissue to tissue ratio at 1 h for this compound. CC(C)C[C@H](NC(=O)C[C@H](O)[C@H](CC(C)C)NC(=O)[C@H](Cc1c[nH]cn1)NC(=O)CNC(=O)[C@@H](NC(=O)[C@H](C)NC(=O)[C@H](Cc1csc2ccccc12)NC(=O)[C@H](CCC(N)=O)NC(=O)[C@@H](Cc1ccccc1)NC(=O)CN1CCC(NC(=O)CN2CCN(CC(=O)O)CCN(CC(=O)O)CCN(CC(=O)O)CC2)CC1)C(C)C)C(N)=O [[^68Ga]Ga-[Bta^8]RM2, metal not drawn] ({DOTA}-[X1][dF]Q[Bta]AVGH[Sta]L-NH2)
18.7

---

# assay.explanation: Biodistribution in PC-3 tumor-bearing CB17-SCID mice
# Type: in vivo
# run.conditions: mouse, muscle, intravenous, 100 pmol, ^177Lu-labeled; 1 h p.i.; 100 pmol; n = 4; read-out: Uptake in Muscle
Starred links: 1 amine or outer side, 2 acyl side, 3 side chain; linkers in the order of their positions; H or OH if unused. Non-standard residues stand in square brackets, D forms with d. Residues, ends and D or L forms follow the SMILES beside them. *: point of attachment. DOTA = O=C(O)CN1CCN(CC(=O)O)CCN(CC(=O)*)CCN(CC(=O)O)CC1; Sta = CC(C)C[C@H](N)[C@@H](O)CC(=O)O; Bta = N[C@@H](Cc1csc2ccccc12)C(=O)O; X1 = O=C(CN1CCC(N[*:1])CC1)[*:2]; hSer = N[C@@H](CCO)C(=O)O
measured.property: tissue uptake at 1 h (%ID/g)
Give the number; %ID/g is assumed, so skip it.

- compound: "CC(C)C[C@H](NC(=O)C[C@H](O)[C@H](CC(C)C)NC(=O)[C@H](Cc1c[nH]cn1)NC(=O)CNC(=O)[C@@H](NC(=O)[C@H](C)NC(=O)[C@H](Cc1c[nH]c2ccccc12)NC(=O)[C@H](CCO)NC(=O)[C@@H](Cc1ccccc1)NC(=O)CN1CCC(NC(=O)CN2CCN(CC(=O)O)CCN(CC(=O)O)CCN(CC(=O)O)CC2)CC1)C(C)C)C(N)=O [[^177Lu]Lu-[Hse^7]RM2, metal not drawn] ({DOTA}-[X1][dF][hSer]WAVGH[Sta]L-NH2)"
  measured.property: "tissue uptake at 1 h"
  endpoint.result: 0.2

Let us move to another entry and its tissue uptake at 1 h.
Input CC(C)C[C@H](NC(=O)C[C@H](O)[C@H](CC(C)C)NC(=O)[C@H](Cc1c[nH]cn1)NC(=O)CNC(=O)[C@@H](NC(=O)[C@H](C)NC(=O)[C@H](Cc1csc2ccccc12)NC(=O)[C@H](CCC(N)=O)NC(=O)[C@@H](Cc1ccccc1)NC(=O)CN1CCC(NC(=O)CN2CCN(CC(=O)O)CCN(CC(=O)O)CCN(CC(=O)O)CC2)CC1)C(C)C)C(N)=O [[^177Lu]Lu-[Bta^8]RM2, metal not drawn] ({DOTA}-[X1][dF]Q[Bta]AVGH[Sta]L-NH2) , output reported tissue uptake at 1 h.
0.2

---

Listing: tissue uptake at 24 h of selected molecules
# assay.explanation: Biodistribution in PC-3 tumor-bearing CB17-SCID mice
# Type: in vivo
# run.conditions: mouse, liver, intravenous, 100 pmol, ^177Lu-labeled; 24 h p.i.; 100 pmol; n = 4; read-out: Uptake in Liver
Starred links: 1 amine or outer side, 2 acyl side, 3 side chain; linkers in the order of their positions; H or OH if unused. Non-standard residues stand in square brackets, D forms with d. Residues, ends and D or L forms follow the SMILES beside them. *: point of attachment. DOTA = O=C(O)CN1CCN(CC(=O)O)CCN(CC(=O)*)CCN(CC(=O)O)CC1; Sta = CC(C)C[C@H](N)[C@@H](O)CC(=O)O; Bta = N[C@@H](Cc1csc2ccccc12)C(=O)O; X1 = O=C(CN1CCC(N[*:1])CC1)[*:2]; hSer = N[C@@H](CCO)C(=O)O
Hi! Could you send only the number? It should be in %ID/g, unit omitted.

- molecule: "CC(C)C[C@H](NC(=O)C[C@H](O)[C@H](CC(C)C)NC(=O)[C@H](Cc1c[nH]cn1)NC(=O)CNC(=O)[C@@H](NC(=O)[C@H](C)NC(=O)[C@H](Cc1csc2ccccc12)NC(=O)[C@H](CCC(N)=O)NC(=O)[C@@H](Cc1ccccc1)NC(=O)CN1CCC(NC(=O)CN2CCN(CC(=O)O)CCN(CC(=O)O)CCN(CC(=O)O)CC2)CC1)C(C)C)C(N)=O [[^177Lu]Lu-[Bta^8]RM2, metal not drawn] ({DOTA}-[X1][dF]Q[Bta]AVGH[Sta]L-NH2)"
  tissue uptake at 24 h (%ID/g): 0.77

We now examine a further molecule.
For the molecule CC(C)C[C@H](NC(=O)C[C@H](O)[C@H](CC(C)C)NC(=O)[C@H](Cc1c[nH]cn1)NC(=O)CNC(=O)[C@@H](NC(=O)[C@H](C)NC(=O)[C@H](Cc1c[nH]c2ccccc12)NC(=O)[C@H](CCO)NC(=O)[C@@H](Cc1ccccc1)NC(=O)CN1CCC(NC(=O)CN2CCN(CC(=O)O)CCN(CC(=O)O)CCN(CC(=O)O)CC2)CC1)C(C)C)C(N)=O [[^177Lu]Lu-[Hse^7]RM2, metal not drawn] ({DOTA}-[X1][dF][hSer]WAVGH[Sta]L-NH2) , report tissue uptake at 24 h.
0.96
